# SYSTEM: Adrenergic receptor alpha-2 (Rattus norvegicus, UniProt P22086+P19328+P22909)
# PROCEDURE_DETAILS: Binding affinity towards Alpha-2 adrenergic receptor
# Format: protein assay
PARAMETER_MEASURED: IC50 (µM)

COc1ccccc1OCCN(C)CCC(=O)N1CCCOc2c1cnn(C)c2=O :: 9.5
COc1ccccc1OCCNCCCC(=O)N1CCCSc2c1cnn(C)c2=O :: 0.86
COc1ccccc1OCCNCCC(=O)N1CCCSc2c1cnn(C)c2=O :: 0.27

[1] Cn1ncc2c(c1=O)OCCCN2C(=O)CCNCCOc1ccccc1
[2] COc1ccccc1OCCNCC(=O)N1CCCSc2c1cnn(C)c2=O
// compare: 1 vs 2 , metric IC50, want the smaller Lab log: write the label of the selected item as the result. 1
(1: 0.54 µM, 2: 3.1 µM)

====

# SYSTEM: Adrenergic receptor alpha-1 (Rattus norvegicus, UniProt P15823+P23944+P43140)
# Sequence (P15823 whole entry): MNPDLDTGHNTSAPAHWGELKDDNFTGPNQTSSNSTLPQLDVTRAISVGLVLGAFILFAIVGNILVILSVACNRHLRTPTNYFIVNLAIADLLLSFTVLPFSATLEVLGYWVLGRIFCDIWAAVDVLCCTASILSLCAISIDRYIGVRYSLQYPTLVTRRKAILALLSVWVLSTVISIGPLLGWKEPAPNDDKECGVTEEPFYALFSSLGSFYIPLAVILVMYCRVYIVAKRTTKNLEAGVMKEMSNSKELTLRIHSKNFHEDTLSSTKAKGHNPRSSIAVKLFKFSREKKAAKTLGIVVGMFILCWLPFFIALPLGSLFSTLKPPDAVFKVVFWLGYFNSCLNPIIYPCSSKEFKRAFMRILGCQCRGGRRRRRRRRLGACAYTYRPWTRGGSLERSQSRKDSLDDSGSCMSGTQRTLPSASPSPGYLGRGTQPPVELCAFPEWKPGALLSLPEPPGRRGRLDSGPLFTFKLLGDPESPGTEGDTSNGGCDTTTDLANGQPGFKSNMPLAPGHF
# Sequence (P23944 whole entry): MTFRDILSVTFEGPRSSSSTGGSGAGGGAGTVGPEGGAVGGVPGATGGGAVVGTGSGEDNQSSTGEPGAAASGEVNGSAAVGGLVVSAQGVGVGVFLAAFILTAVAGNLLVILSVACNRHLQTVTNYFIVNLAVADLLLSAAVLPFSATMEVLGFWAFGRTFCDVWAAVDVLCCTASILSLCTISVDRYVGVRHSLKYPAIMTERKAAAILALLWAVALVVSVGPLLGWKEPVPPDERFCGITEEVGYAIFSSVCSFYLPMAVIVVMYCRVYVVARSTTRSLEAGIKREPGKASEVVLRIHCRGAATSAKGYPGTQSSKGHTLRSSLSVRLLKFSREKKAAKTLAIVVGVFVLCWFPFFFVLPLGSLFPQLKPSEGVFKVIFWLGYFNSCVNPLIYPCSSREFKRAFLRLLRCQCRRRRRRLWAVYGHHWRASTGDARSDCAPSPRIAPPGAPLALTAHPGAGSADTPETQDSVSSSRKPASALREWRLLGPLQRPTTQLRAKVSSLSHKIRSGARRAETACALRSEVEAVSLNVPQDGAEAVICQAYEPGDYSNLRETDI
# Sequence (P43140 whole entry): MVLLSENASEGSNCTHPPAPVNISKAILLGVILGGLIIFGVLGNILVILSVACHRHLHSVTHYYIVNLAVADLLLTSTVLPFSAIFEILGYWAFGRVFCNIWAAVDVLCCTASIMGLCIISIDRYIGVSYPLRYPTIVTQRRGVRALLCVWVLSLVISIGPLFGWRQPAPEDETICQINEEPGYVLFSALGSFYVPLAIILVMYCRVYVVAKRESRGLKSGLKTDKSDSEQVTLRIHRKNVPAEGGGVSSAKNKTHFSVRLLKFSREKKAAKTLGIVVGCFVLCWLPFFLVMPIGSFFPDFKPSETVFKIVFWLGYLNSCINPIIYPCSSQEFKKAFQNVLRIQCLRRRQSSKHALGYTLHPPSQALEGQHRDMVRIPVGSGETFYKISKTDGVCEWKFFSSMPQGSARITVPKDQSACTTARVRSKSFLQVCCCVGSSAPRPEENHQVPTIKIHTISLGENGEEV
# PROCEDURE_DETAILS: Binding affinity towards Alpha-1 adrenergic receptor
# Format: protein assay
PARAMETER_MEASURED: IC50 (µM)

Cn1ncc2c(c1=O)SCCCN2C(=O)CNCC1COc2ccccc2O1 (stereo unspecified) :: 19
COc1ccccc1OCCNCCCC(=O)N1CCCSc2c1cnn(C)c2=O :: 0.93
COc1ccccc1OCCNCC(=O)N1CCCOc2c1cnn(C)c2=O :: 12.5

[1] COc1ccccc1OCCNCCCC(=O)N1CCCOc2c1cnn(C)c2=O
[2] COc1ccccc1OCCN(C)CCC(=O)N1CCCOc2c1cnn(C)c2=O
[3] COc1ccccc1OCCNCCC(=O)N1CCCSc2c1cnn(C)c2=O
Order the records, beginning with the lowest IC50 and ending with the highest. Give the order by naming the labels one after another as requested. 1, 3, 2
(1: 0.69 µM, 3: 1.7 µM, 2: 16.1 µM)

[A] COc1ccccc1OCCNCCC(=O)N1CCCOc2c1cnn(C)c2=O
[B] Cn1ncc2c(c1=O)OCCCN2C(=O)CCNCCOc1ccccc1
In the pair A and B , the larger recorded IC50 belongs to which? Lab log: write the label of the selected item as the result. B

====

# SYSTEM: 5-hydroxytryptamine receptor 1A (Rattus norvegicus)
# Sequence (P19327 whole entry): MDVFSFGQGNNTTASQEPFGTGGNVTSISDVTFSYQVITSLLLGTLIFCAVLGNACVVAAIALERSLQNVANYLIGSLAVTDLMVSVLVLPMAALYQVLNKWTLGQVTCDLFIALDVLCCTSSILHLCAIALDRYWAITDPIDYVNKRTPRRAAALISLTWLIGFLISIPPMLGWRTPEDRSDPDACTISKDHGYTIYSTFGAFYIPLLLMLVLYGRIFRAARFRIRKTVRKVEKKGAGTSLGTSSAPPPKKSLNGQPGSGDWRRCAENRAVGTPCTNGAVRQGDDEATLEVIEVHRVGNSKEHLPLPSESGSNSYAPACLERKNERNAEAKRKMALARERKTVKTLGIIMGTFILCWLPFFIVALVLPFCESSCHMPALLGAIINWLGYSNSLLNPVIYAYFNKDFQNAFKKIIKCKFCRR
PARAMETER_MEASURED: IC50 (nM)

CCSc1c(N(C)C(=O)CCNCCOc2ccccc2OC)cnn(C)c1=O :: 32.7
COc1ccccc1OCCNCC(=O)N1CCCOc2c1cnn(C)c2=O :: 163
Cn1ncc2c(c1=O)OCCCN2C(=O)CNCCOc1ccccc1 :: 230
Cn1ncc2c(c1=O)OCCCN2C(=O)CNCC1COc2ccccc2O1 (stereo not given) :: 299
Cn1ncc2c(c1=O)SCCCN2C(=O)CCNCCOc1cccc(Cl)c1 :: 181

[1] Cn1ncc2c(c1=O)SCCCN2C(=O)CCNCCOc1ccccc1
[2] Cn1ncc2c(c1=O)OCCCN2C(=O)CCNCCOc1cccc(Cl)c1
// compare: 1 vs 2 , metric IC50, want the smaller Lab log: write the label of the selected item as the result. 1

====

Quick reference: IC50 of the listed items.
# SYSTEM: Adrenergic receptor alpha-1 (Rattus norvegicus, UniProt P15823+P23944+P43140)
# Sequence (P15823 whole entry): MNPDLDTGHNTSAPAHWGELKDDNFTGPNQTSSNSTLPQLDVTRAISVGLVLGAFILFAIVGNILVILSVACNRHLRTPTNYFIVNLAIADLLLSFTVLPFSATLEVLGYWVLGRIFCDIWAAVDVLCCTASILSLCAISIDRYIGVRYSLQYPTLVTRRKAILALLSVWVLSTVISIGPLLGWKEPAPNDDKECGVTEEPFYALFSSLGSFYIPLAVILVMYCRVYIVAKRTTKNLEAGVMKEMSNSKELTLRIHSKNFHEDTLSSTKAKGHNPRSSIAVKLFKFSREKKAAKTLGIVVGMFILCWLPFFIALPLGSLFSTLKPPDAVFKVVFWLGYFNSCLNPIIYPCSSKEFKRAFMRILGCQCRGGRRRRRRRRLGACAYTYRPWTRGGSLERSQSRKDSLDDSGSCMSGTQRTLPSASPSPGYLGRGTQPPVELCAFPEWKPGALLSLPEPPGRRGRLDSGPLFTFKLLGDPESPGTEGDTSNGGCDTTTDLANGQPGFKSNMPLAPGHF
# Sequence (P23944 whole entry): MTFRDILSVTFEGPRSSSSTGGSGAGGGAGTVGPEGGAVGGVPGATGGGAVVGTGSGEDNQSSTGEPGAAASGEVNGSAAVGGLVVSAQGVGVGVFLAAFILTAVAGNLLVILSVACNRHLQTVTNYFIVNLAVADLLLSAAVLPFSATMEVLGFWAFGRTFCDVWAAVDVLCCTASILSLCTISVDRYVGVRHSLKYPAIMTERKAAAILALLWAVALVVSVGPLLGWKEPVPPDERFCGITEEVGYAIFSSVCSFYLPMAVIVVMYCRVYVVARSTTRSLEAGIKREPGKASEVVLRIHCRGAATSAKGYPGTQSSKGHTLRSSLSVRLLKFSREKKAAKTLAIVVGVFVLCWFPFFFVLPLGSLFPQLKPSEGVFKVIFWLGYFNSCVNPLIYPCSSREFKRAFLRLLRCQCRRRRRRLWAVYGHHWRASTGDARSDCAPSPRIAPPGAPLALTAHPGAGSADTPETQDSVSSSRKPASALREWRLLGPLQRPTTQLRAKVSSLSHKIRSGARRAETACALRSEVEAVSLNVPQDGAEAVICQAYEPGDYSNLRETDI
# Sequence (P43140 whole entry): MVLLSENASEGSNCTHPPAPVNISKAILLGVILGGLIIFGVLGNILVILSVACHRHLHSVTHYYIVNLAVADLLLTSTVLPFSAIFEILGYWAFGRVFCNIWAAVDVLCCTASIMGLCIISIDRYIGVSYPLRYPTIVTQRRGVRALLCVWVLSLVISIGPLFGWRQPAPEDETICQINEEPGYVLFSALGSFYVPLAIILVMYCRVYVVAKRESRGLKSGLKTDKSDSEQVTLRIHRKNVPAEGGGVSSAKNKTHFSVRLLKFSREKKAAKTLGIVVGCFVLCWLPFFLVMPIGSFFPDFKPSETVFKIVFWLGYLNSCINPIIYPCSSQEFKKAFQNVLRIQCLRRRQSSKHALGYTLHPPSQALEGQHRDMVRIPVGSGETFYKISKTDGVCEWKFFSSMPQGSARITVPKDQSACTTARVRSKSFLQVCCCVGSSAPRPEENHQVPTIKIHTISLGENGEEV
# PROCEDURE_DETAILS: Binding affinity towards Alpha-1 adrenergic receptor
# Format: protein assay

Below, 2 compounds whose answers are already recorded.
COc1ccccc1OCC(O)CN1CCN(CCC(=O)N2CCCOc3c2cnn(C)c3=O)CC1 (stereo not drawn) :: > 10 µM
Cn1ncc2c(c1=O)OCCCN2C(=O)CNCC1COc2ccccc2O1 (stereo not drawn) :: > 10 µM

Here is the next item to consider.
So what does the record say about IC50 for COc1ccccc1OCCNCC(=O)N1CCCSc2c1cnn(C)c2=O ? > 10 µM
